Attribution: patent EP0185961A2

System: Reispflanzen
Assay info: Growth inhibition in paddy rice, small plots
Condition description: Oryza sativa, 504 h, read-out: Wuchsshemmung (%)
# key: entry, value: pest or weed control at 1250 g/ha
Write the value in % as a bare number.

> print(dat)
                       structure.smiles  target.or.test.system  endpoint.value
1   CCc1cccc(CC)c1-n1cncc1C(=O)NCC(=O)O           Reispflanzen              21
2            CCc1cccc(CC)c1-n1cncc1C=NO           Reispflanzen              21
3  CCc1cccc(CC)c1-n1cncc1C1=NC(C)(C)CO1           Reispflanzen              18

## Task Form field: reported pest or weed control at 1250 g/ha of "CCc1cccc(CC)c1-n1cncc1C(=O)NNC(N)=O"
## Result 21

## Task Now consider "CCc1cccc(CC)c1-n1cncc1C(=O)NCC(=O)OC" .
## Result 20

## Task Now consider "CCc1cccc(CC)c1-n1cncc1C(=O)NN" .
## Result 21

## Task Now consider "CCc1cccc(CC)c1-n1cncc1CO" .
## Result 21

## Task Now consider "CCc1cccc(CC)c1-n1cncc1C(=O)OC1CCCCC1" .
## Result 21

## Task Now consider "CCc1cccc(CC)c1-n1cncc1COCc1ccccc1C" .
## Result 18

## Task Now consider "CCc1cccc(CC)c1-n1cncc1C(=O)NN(C)C" .
## Result 21

###

System: Roggen
Assay info: Growth inhibition in cereals, greenhouse tray test, sprayed at 3-leaf stage
Type: in vivo
Condition description: 2,5 kg/ha; % of growth increment of untreated controls; read-out: Wuchsshemmung in % bei Roggen
Classification field: 1 = pest or weed control at 2500 g/ha at or over 20%; 0 = pest or weed control at 2500 g/ha under 20%.

## Task Is pest or weed control at 2500 g/ha for "CCc1cccc(CC)c1-n1cncc1C(=O)NN" at or above 20%?
## Result 1

## Task Now consider "C#CCOC(=O)c1cncn1-c1c(CC)cccc1CC" .
## Result 0

## Task Now consider "CCc1cccc(CC)c1-n1cncc1C(=O)NCC(=O)O" .
## Result 1

## Task Now consider "CCc1cccc(CC)c1-n1cncc1COCc1ccccc1C" .
## Result 1

## Task Now consider "CCc1cccc(CC)c1-n1cncc1C(=O)OCSC" .
## Result 1

## Task Now consider "CCc1cccc(CC)c1-n1cncc1C(=O)NO" .
## Result 1

###

System: Reispflanzen
Condition description: in vivo
Outcome measure: Phytotox. Wirkung

Worked cases, Phytotox. Wirkung given:
> print(dat)
                                   compound  endpoint.value
1  CCc1cccc(CC)c1-n1cncc1C(=O)ON=C(C)C(C)C [Beispiel 42]   keine Schäden
2  CCc1cccc(CC)c1-n1cncc1C(=O)NCC#N [Beispiel 57]   keine Schäden
3  CCc1cccc(CC)c1-n1cncc1C(=O)ON=C(C)C [Beispiel 40]   keine Schäden
4    CCc1cccc(CC)c1-n1cncc1CO [Beispiel 12]   keine Schäden

Kindly review the next compound as well.
## Task Form field: reported Phytotox. Wirkung of CCc1cccc(CC)c1-n1cncc1C1=NC(C)(C)CO1 [Beispiel 6]
## Result keine Schäden

###

# key: entry, value: pest or weed control at 620 g/ha
System: Reispflanzen
Assay info: Growth inhibition in paddy rice, small plots
Condition description: Oryza sativa, 504 h, read-out: Wuchsshemmung (%)
Write the value in % as a bare number.

Worked cases, pest or weed control at 620 g/ha given:
> print(dat)
                           structure.smiles                   outcome.measure  readout.units  endpoint.value
1   CCc1cccc(CC)c1-n1cncc1C(=O)ON=C(C)C1CC1  pest or weed control at 620 g/ha              %              13
2         CCc1cccc(CC)c1-n1cncc1-c1nc(C)no1  pest or weed control at 620 g/ha              %              15
3  CCc1cccc(CC)c1-n1cncc1C(=O)ON1C(=O)c2ccccc2C1=O  pest or weed control at 620 g/ha              %              25
4             CCc1cccc(CC)c1-n1cncc1C(=O)NO  pest or weed control at 620 g/ha              %              18
5    CCc1cccc(CC)c1-n1cncc1C(=O)ON=C1CCCCC1  pest or weed control at 620 g/ha              %              19
6      CCc1cccc(CC)c1-n1cncc1C1=NC(C)(C)CO1  pest or weed control at 620 g/ha              %              11

## Task Form field: reported pest or weed control at 620 g/ha of "CCc1cccc(CC)c1-n1cncc1-c1nnn[nH]1"
## Result 11

## Task Now consider "CCc1cccc(CC)c1-n1cncc1C(=O)NN" .
## Result 14

## Task Now consider "CCc1cccc(CC)c1-n1cncc1C(=O)n1cncn1" .
## Result 14

## Task Now consider "CCc1cccc(CC)c1-n1cncc1C(=O)NCC(=O)O" .
## Result 13

###

# key: entry, value: pest or weed control at 2500 g/ha
Test system: Roggen
Assay info: Growth inhibition in cereals, greenhouse tray test, sprayed at 3-leaf stage
Format: in vivo
Condition description: 2,5 kg/ha; % of growth increment of untreated controls; read-out: Wuchsshemmung in % bei Roggen
Write the value in % as a bare number.

> print(dat)
                                   compound  target.or.test.system  endpoint.value
1  CCOC(=O)CSC(=O)c1cncn1-c1c(CC)cccc1CC [Beispiel 54]                 Roggen              24
2  CCc1cccc(CC)c1-n1cncc1-c1nnn[nH]1 [Beispiel 5]                 Roggen              21
3  CCc1cccc(CC)c1-n1cncc1C(=O)ON=C(C)C1CC1 [Beispiel 45]                 Roggen              22
4  CCc1cccc(CC)c1-n1cncc1C(=O)NCCO [Beispiel 3]                 Roggen              26

Kindly review the next compound as well.
## Task Please state recorded pest or weed control at 2500 g/ha (tested on Roggen) of CCc1cccc(CC)c1-n1cncc1C(=O)NNC(N)=O [Beispiel 70]
## Result 25

###

System: Roggen
Assay info: Growth inhibition in cereals, greenhouse tray test, sprayed at 3-leaf stage
Type: in vivo
Condition description: 1,25 kg/ha; % of growth increment of untreated controls; read-out: Wuchsshemmung in % bei Roggen
# key: entry, value: pest or weed control at 1250 g/ha
Write the value in % as a bare number.

Worked cases, pest or weed control at 1250 g/ha given:
> print(dat)
                       structure.smiles                    outcome.measure  endpoint.value
1            CCc1cccc(CC)c1-n1cncc1C=NO  pest or weed control at 1250 g/ha              13
2  CCc1cccc(CC)c1-n1cncc1C(=O)NCC(=O)OC  pest or weed control at 1250 g/ha              18
3              CCc1cccc(CC)c1-n1cncc1CO  pest or weed control at 1250 g/ha              17
4   CCc1cccc(CC)c1-n1cncc1C(=O)NCC(=O)O  pest or weed control at 1250 g/ha              17

Kindly review the next molecule as well.
## Task Form field: reported pest or weed control at 1250 g/ha of "CCc1cccc(CC)c1-n1cncc1C(=O)NN"
## Result 18

###

Test system: Gerste
Assay info: Growth inhibition in cereals, greenhouse tray test, sprayed at 3-leaf stage
Type: in vivo
Condition description: 1,25 kg/ha; % of growth increment of untreated controls; read-out: Wuchsshemmung in % bei Gerste
# key: entry, value: pest or weed control at 1250 g/ha
Please give the number followed by its unit.

Worked cases, pest or weed control at 1250 g/ha given:
> print(dat)
                        structure.smiles  endpoint.value
1      CCc1cccc(CC)c1-n1cncc1-c1nnn[nH]1             13%
2  CCOC(=O)CSC(=O)c1cncn1-c1c(CC)cccc1CC             19%
3       CCc1cccc(CC)c1-n1cncc1C(=O)NCC#N             18%
4          CCc1cccc(CC)c1-n1cncc1C(=O)NN             19%

## Task Form field: reported pest or weed control at 1250 g/ha of "CCc1cccc(CC)c1-n1cncc1C(=O)n1cncn1"
## Result 17%

## Task Now consider "CCc1cccc(CC)c1-n1cncc1C(=O)ON=C1CCCCC1" .
## Result 18%

## Task Now consider "CCc1cccc(CC)c1-n1cncc1C(=O)NNC(N)=O" .
## Result 18%

## Task Now consider "CCc1cccc(CC)c1-n1cncc1C(=O)ON1C(=O)c2ccccc2C1=O" .
## Result 18%

## Task Now consider "CCc1cccc(CC)c1-n1cncc1C(=O)ON=C(C)C" .
## Result 19%

## Task Now consider "CCc1cccc(CC)c1-n1cncc1C(=O)ON=C(C)C(C)C" .
## Result 16%
